# Measurement description: Equilibrium solubility in HPβCD or HPγCD in acetate (first Table I)
# Assay type: physicochemical
# Conditions used: 1% HPβCD in acetate, pH 4.584, aqueous with cosolvent or surfactant or cyclodextrin, thermodynamic from solid, 1% HPβCD in Acetate, pH 4.584, equilibrium solubility at day 3; read-out: 1H-indole-1-carboxamide Solubility
Measurement kind: solubility at 3 day (µg/mL)
Numbers only, in µg/mL.

Prompt: What does the record list as solubility at 3 day for "CNCc1cc(Oc2ccc3c(ccn3C(=O)Nc3cc(C(F)(F)F)n(C)n3)c2)ncn1" ?
Response: 7500

---

# Measurement description: Equilibrium solubility in HPβCD or HPγCD in acetate (first Table I)
# Format: physicochemical
# Conditions used: 2.5% HPγCD in acetate, pH 4.555, aqueous with cosolvent or surfactant or cyclodextrin, thermodynamic from solid, 2.5% HPγCD in Acetate, pH 4.555, equilibrium solubility at day 3; read-out: 1H-indole-1-carboxamide Solubility
# From the text: Hydroxypropyl-γ-cyclodextrin is preferred for dissolution of the 1H-indole-1-carboxamide.
Measurement kind: solubility at 3 day
Just the number plus its unit, please.

Prompt: Look at this molecule and give its reported solubility at 3 day. "CNCc1cc(Oc2ccc3c(ccn3C(=O)Nc3cc(C(F)(F)F)n(C)n3)c2)ncn1"
Response: 14.7 mg/mL

---

# Measurement description: Ocular tissue and plasma PK after repeated t.i.d. monocular dosing for 7 days
# Type: in vivo, pigmented rabbits
# Conditions used: NZW×NZR (pigmented), rabbit, RPE/choroid of the dosed eye (OD), topical or ocular, 2 % formulation; RPE/Choroid OD (dosed eye), 2% t.i.d. 7 days
Measurement kind: Tmax (min)
Answers are plain numbers, in min.

Prompt: Given the entry "CNCc1cc(Oc2ccc3c(ccn3C(=O)Nc3cc(C(F)(F)F)n(C)n3)c2)ncn1" , report its measured Tmax.
Response: 30
